# Test system: Human immunodeficiency virus 2
# PROCEDURE_SUMMARY: Inhibition of HIV2 reverse transcriptase assessed as 32P-labeled GMP incorporation into nascent DNA strand at highest concentration
Activity calls are given as the source filed them. No rule for the calls is given here.
QUANTITY: Activity

Past entries and their recorded results:
In [3]: df
Out[3]:
                                smiles_code  test_result
0  Cc1cc(C)cc(Oc2c(C(C)C)c(=O)[nH]c(=O)n2Cc2ccccc2)c1     inactive
1  Cc1cc(C)cc(Sc2c(C(C)C)c(=O)[nH]c(=O)n2CCC2=CCCC2)c1     inactive
2  CCc1c(C(=O)c2cc(C)cc(C)c2)n(CC2CCC2)c(=O)[nH]c1=O     inactive
3  CCc1c(Sc2cc(C)cc(C)c2)n(CC2CCCCC2)c(=O)[nH]c1=O     inactive

Now turn to the next compound.
For this compound ( CCc1c(Sc2cc(C)cc(C)c2)n(CC2=CCCC2)c(=O)[nH]c1=O ), measured Activity is inactive

----------
# PROCEDURE_SUMMARY: Cytotoxicity against human HeLa cells expressing CD4-LTR by XTT assay
# Type: cell-based
# MEASUREMENT_CONTEXT: read-out: TC50 (the source's name)
// classify: if (CC50 < 90 µM) satisfied else not satisfied

Known results for compounds:
>>> df
                                   compound    group_label
0  CCc1c(C(=O)c2cc(C)cc(C)c2)n(CC2CC=CC2)c(=O)[nH]c1=O  not satisfied
1  Cc1cc(C)cc(Sc2c(C(C)C)c(=O)[nH]c(=O)n2CCC2CCCC2)c1      satisfied
2  CC(C)c1c(Oc2ccccc2)n(CC2CC=CC2)c(=O)[nH]c1=O  not satisfied
3  Cc1cc(C)cc(Oc2c(C(C)C)c(=O)[nH]c(=O)n2CCC2CCCC2)c1      satisfied
4  CCc1c(Sc2cc(C)cc(C)c2)n(CC2CC2)c(=O)[nH]c1=O      satisfied

Dear reviewer, please state whether CCc1c(Oc2cc(C)cc(C)c2)n(CCC2=CCCC2)c(=O)[nH]c1=O has CC50 strictly beneath 90 µM. not satisfied

Dear reviewer, please state whether CCc1c(Oc2ccccc2)n(CC2CC=CC2)c(=O)[nH]c1=O has CC50 strictly beneath 90 µM. satisfied

Dear reviewer, please state whether CCc1c(Sc2cc(C)cc(C)c2)n(Cc2ccccc2)c(=O)[nH]c1=O has CC50 strictly beneath 90 µM. not satisfied

Dear reviewer, please state whether Cc1cc(C)cc(Sc2c(C(C)C)c(=O)[nH]c(=O)n2CCC2CC=CC2)c1 has CC50 strictly beneath 90 µM. satisfied

Dear reviewer, please state whether CCc1c(Sc2cc(C)cc(C)c2)n(CCC2C=CCC2)c(=O)[nH]c1=O (configuration not stated) has CC50 strictly beneath 90 µM. satisfied

Dear reviewer, please state whether Cc1cc(C)cc(Sc2c(C(C)C)c(=O)[nH]c(=O)n2CCC2C=CCC2)c1 (configuration not stated) has CC50 strictly beneath 90 µM. satisfied

----------
# MEASURED_TARGET: Human immunodeficiency virus type 1 reverse transcriptase (Human immunodeficiency virus 1, UniProt Q72547)
Reported values of IC50 for individual entries
Enter your answer as a number in nM; do not include the unit.

Past entries and their recorded results:
>>> df
                                   compound  quantity  test_result
0  CCc1c(C(=O)c2cc(C)cc(C)c2)n(Cc2ccccc2)c(=O)[nH]c1=O      IC50           25
1  CCc1c(C(=O)c2cc(C)cc(C)c2)n(CCC2C=CCC2)c(=O)[nH]c1=O (stereo not given)      IC50           75
2  CCc1c(Sc2cc(C)cc(C)c2)n(CC2=CCCC2)c(=O)[nH]c1=O      IC50          138
3  Cc1cc(C)cc(Sc2c(C(C)C)c(=O)[nH]c(=O)n2CCC2=CCCC2)c1      IC50         2360
4  CCc1c(Oc2cc(C)cc(C)c2)n(Cc2ccccc2)c(=O)[nH]c1=O      IC50           95
5  CCc1c(Oc2cc(C)cc(C)c2)n(CCC2=CCCC2)c(=O)[nH]c1=O      IC50        10300

For this compound ( CCc1c(Sc2cc(C)cc(C)c2)n(CC2CCCC2)c(=O)[nH]c1=O ), measured IC50 is 126

For this compound ( CCc1c(Oc2cc(C)cc(C)c2)n(CCC2CCCC2)c(=O)[nH]c1=O ), measured IC50 is 549

For this compound ( CCc1c(C(=O)c2ccccc2)n(CC2CC=CC2)c(=O)[nH]c1=O ), measured IC50 is 256

For this compound ( CCc1c(C(=O)c2cc(C)cc(C)c2)n(CC2CCCC2)c(=O)[nH]c1=O ), measured IC50 is 169

----------
Reported values of pIC50 for individual entries
# MEASURED_TARGET: Human immunodeficiency virus type 1 reverse transcriptase (Human immunodeficiency virus 1, UniProt Q72547, K103N)
# PROCEDURE_SUMMARY: Inhibition of HIV1 reverse transcriptase K103N mutant assessed as 32P-labeled GMP incorporation into nascent DNA strand
Note on pIC50: it is the negative log10 of concentration, concentration in mol/L.

>>> print(df.to_string())
                                smiles_code  test_result
0  CCc1c(C(=O)c2cc(C)cc(C)c2)n(CC2CCC2)c(=O)[nH]c1=O         5.36
1  CCc1c(C(=O)c2ccccc2)n(CC2CC=CC2)c(=O)[nH]c1=O         3.87

For this compound ( Cc1cc(C)cc(Sc2c(C(C)C)c(=O)[nH]c(=O)n2CCC2CCCC2)c1 ), measured pIC50 is 3.69

----------
# PROCEDURE_SUMMARY: Therapeutic index, ratio of TC50 for human CEM-SS cells to EC50 for HIV2 ROD infected in human CEM-SS cells
# Type: cell-based
# MEASUREMENT_CONTEXT: CEM-SS cells, read-out: TI
// classify: if (selectivity ratio < 60) y else n

Known results for molecules:
>>> df
                                   molecule  group_label
0  CCc1c(Oc2cc(C)cc(C)c2)n(CCC2C=CCC2)c(=O)[nH]c1=O (configuration not stated)            n
1  Cc1cc(C)cc(C(=O)c2c(C(C)C)c(=O)[nH]c(=O)n2CC2CC2)c1            n
2  CCc1c(C(=O)c2cc(C)cc(C)c2)n(CC2CC2)c(=O)[nH]c1=O            n
3  CCc1c(Oc2cc(C)cc(C)c2)n(CC2CCCC2)c(=O)[nH]c1=O            y
4  Cc1cc(C)cc(Sc2c(C(C)C)c(=O)[nH]c(=O)n2CC2CCCCC2)c1            y

Dear reviewer, please state whether CCc1c(C(=O)c2cc(C)cc(C)c2)n(CC2CC=CC2)c(=O)[nH]c1=O has selectivity ratio strictly beneath 60. n

Dear reviewer, please state whether Cc1cc(C)cc(Sc2c(C(C)C)c(=O)[nH]c(=O)n2CC2=CCCC2)c1 has selectivity ratio strictly beneath 60. y

----------
# System: Human immunodeficiency virus 2
# PROCEDURE_SUMMARY: Antiviral activity against HIV2 assessed as inhibition of viral replication treated at time points after viral entry into host cells
# Type: functional, organism-based
The source made the active and inactive calls. No rule for the calls is given here.
QUANTITY: Activity

>>> df
                                smiles_code                 measured_target  quantity  test_result
0  CCc1c(C(=O)c2cc(C)cc(C)c2)n(CC2CCCCC2)c(=O)[nH]c1=O  Human immunodeficiency virus 2  Activity     inactive
1  Cc1cc(C)cc(Sc2c(C(C)C)c(=O)[nH]c(=O)n2Cc2ccccc2)c1  Human immunodeficiency virus 2  Activity     inactive
2  Cc1cc(C)cc(C(=O)c2c(C)c(=O)[nH]c(=O)n2CC2CC=CC2)c1  Human immunodeficiency virus 2  Activity     inactive
3  CCc1c(Oc2cc(C)cc(C)c2)n(CCC2CC=CC2)c(=O)[nH]c1=O  Human immunodeficiency virus 2  Activity     inactive

Now turn to the next compound.
For this compound ( Cc1cc(C)cc(Sc2c(C(C)C)c(=O)[nH]c(=O)n2CC2CCCC2)c1 ), measured Activity is inactive

----------
# PROCEDURE_SUMMARY: Cytotoxicity against human CEM-SS cells by XTT assay
# Type: cell-based
# MEASUREMENT_CONTEXT: read-out: TC50 (the source's name)
QUANTITY: CC50 (µM)
Enter your answer as a number in µM; do not include the unit.

                                   compound  value_units  test_result
0  Cc1cc(C)cc(C(=O)c2c(C(C)C)c(=O)[nH]c(=O)n2CCC2C=CCC2)c1 (configuration not stated)           µM         13.7
1  Cc1cc(C)cc(Oc2c(C(C)C)c(=O)[nH]c(=O)n2CC2CCCC2)c1           µM         11.8
2  Cc1cc(C)cc(C(=O)c2c(C(C)C)c(=O)[nH]c(=O)n2CC2CCCCC2)c1           µM         16.2
3  CCc1c(Sc2cc(C)cc(C)c2)n(CCC2=CCCC2)c(=O)[nH]c1=O           µM          143
4  Cc1cc(C)cc(Sc2c(C(C)C)c(=O)[nH]c(=O)n2CC2CC2)c1           µM          7.8

For this compound ( Cc1cc(C)cc(Sc2c(C(C)C)c(=O)[nH]c(=O)n2Cc2ccccc2)c1 ), measured CC50 is 192

For this compound ( CCc1c(C(=O)c2cc(C)cc(C)c2)n(CC2CC=CC2)c(=O)[nH]c1=O ), measured CC50 is 1100

For this compound ( CCc1c(C(=O)c2cc(C)cc(C)c2)n(CC2=CCCC2)c(=O)[nH]c1=O ), measured CC50 is 60.5

For this compound ( Cc1cc(C)cc(Sc2c(C(C)C)c(=O)[nH]c(=O)n2CC2CC=CC2)c1 ), measured CC50 is 26.5

For this compound ( CCc1c(Oc2cc(C)cc(C)c2)n(CCC2CC=CC2)c(=O)[nH]c1=O ), measured CC50 is 1100

For this compound ( CCc1c(C(=O)c2cc(C)cc(C)c2)n(CCC2CC=CC2)c(=O)[nH]c1=O ), measured CC50 is 13.4

For this compound ( Cc1cc(C)cc(Sc2c(C(C)C)c(=O)[nH]c(=O)n2CC2CCCC2)c1 ), measured CC50 is 7
